- System under test: Fuc(a1-2)Gal6S(b1-3)GlcNAc
- Assay notes: glycan array binding signal (z-score within array); higher = stronger binding
- Recorded conditions: glycan notation: IUPAC condensed, linker removed
Only a selection was taken, and the strongest signals are over-represented in it overall.
Outcome measure: glycan array binding signal (z-score)

Binder	Experimental value
UDA (Urtica dioica), P11218 (protein) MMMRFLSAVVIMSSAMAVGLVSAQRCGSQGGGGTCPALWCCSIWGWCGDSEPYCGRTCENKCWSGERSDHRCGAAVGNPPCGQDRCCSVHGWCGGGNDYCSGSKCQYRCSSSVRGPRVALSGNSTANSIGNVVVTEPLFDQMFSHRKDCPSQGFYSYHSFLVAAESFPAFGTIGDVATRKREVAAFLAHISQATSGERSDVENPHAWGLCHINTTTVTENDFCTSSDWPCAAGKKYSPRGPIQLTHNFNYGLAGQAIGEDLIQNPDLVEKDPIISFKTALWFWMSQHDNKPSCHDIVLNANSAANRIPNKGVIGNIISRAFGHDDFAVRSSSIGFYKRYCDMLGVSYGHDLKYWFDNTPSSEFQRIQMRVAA	-0.184

Values were extracted from the supplement of paper PMC8728848.
